Kindly supply the reported TGI values for the records listed here.
Test system: NCI/ADR-RES ovarian
Assay: NCI tumour cell line growth inhibition, 48 h

INSERT INTO assay_data (compound, target_of_assay, endpoint_value) VALUES
  ('CC1=NNC(=O)C1C1CC(c2c[nH]c3ccccc23)=NNC1=S (stereo not given)', 'NCI/ADR-RES ovarian', '> 100 µM'),
  ('Cn1ccnc1C(=O)/C=C/c1ccc(C(=O)Nc2ccc(S(F)(F)(F)(F)F)cc2)cc1', 'NCI/ADR-RES ovarian', '> 14.3 µM'),
  ('Clc1cc2c(cc1Cl)Oc1cc(Cl)c(Cl)cc1O2', 'NCI/ADR-RES ovarian', '> 0.625 µM'),
  ('COc1ccc(NC(=O)CC(=O)N2N=C(c3ccccc3)C(N=Nc3ccc(S(=O)(=O)CCOS(=O)(=O)O)cc3)C2=O)cc1 (stereo not given)', 'NCI/ADR-RES ovarian', '> 100 µM'),
  ('CC(=O)NNc1nc(C)c(C(/C=C/c2ccc([N+](=O)[O-])cc2)=N/N)s1', 'NCI/ADR-RES ovarian', '> 100 µM'),
  ('CN(Cc1ccc(Cl)cc1)c1ccc(CO)c(Cl)c1', 'NCI/ADR-RES ovarian', '25.4 µM'),
  ('CC(C)(C)OC(=O)NCC(=O)NC1c2ccsc2/C(=N/O)[C@H]1O (stereo not given in full)', 'NCI/ADR-RES ovarian', '> 100 µM'),
  ('CCCCCc1nc2c(c3c1CCCC3)CCCC2', 'NCI/ADR-RES ovarian', '22.6 µM');

Here are 2 compounds. What values of TGI were reported for them?
1. COC(=O)C1=C(C(=O)OC)C(Cc2ccccc2)(OO)OC1=O (stereo not given)
2. C/C=C1/CN2CCc3c([nH]c4ccccc34)[C@@H]2C[C@@H]1Cc1[nH]ccc2c1[nH]c1cc(=O)ccc12

["> 100 µM", "3.49 µM"]

----------
Tested on: SW-620 colon
Assay: NCI tumour cell line growth inhibition, 48 h
Kindly supply the reported TGI values for the records listed here.

Completed entries (count: 3):
INSERT INTO measurements (molecule, endpoint_value) VALUES
  ('O=Cc1c2ccccc2n2ccc3c4ccccc4[nH]c3c12', '> 10 µM'),
  ('CCOc1ccc(NC(=O)C2=C(C)NC(C)=C(C(=O)Nc3ccc(OCC)cc3)C2c2ccc(O)c(OC)c2)cc1', '> 100 µM'),
  ('O=C(O)C1=CCCc2ccc3ccccc3c21', '> 100 µM');

Here are 3 molecules. What values of TGI were reported for them?
1. S=c1nc(Cc2ccc(Cl)cc2)[nH][nH]1
2. COC(=O)C1CCC(Nc2ccc(C)cc2C)=N1 (stereo unspecified)
3. COc1ccc(C2CC(c3cccc(Nc4ccncc4)c3)=NN2c2ccc(Cl)cc2)cc1 (stereo unspecified)

> 100 µM
> 100 µM
3.19 µM

Here are 7 molecules. What values of TGI were reported for them?
1. Cc1n[nH]c(=O)n1C1CCCC1
2. Cc1ccc(S(=O)(=O)n2c3c(c4ccccc42)CCN2C(=O)C(S(=O)(=O)c4ccccc4)=CCC32)cc1 (stereo unspecified)
3. CCN(CC)CCCC(C)Nc1ccnc2cc3ccccc3cc12 (stereo unspecified)
4. CCOCN1COCN=C1NC#N
5. Cn1c(-c2cccs2)cc(-c2ccccc2)c1-c1cccs1
6. COc1cc(-c2nc3sccn3c2-c2ccnc(NCCNS(=O)(=O)c3ccc(Cl)cc3)n2)ccc1F
7. O=C(Nc1ccccc1)c1nn(-c2cc(S(=O)(=O)O)c([N+](=O)[O-])cc2Cl)[n+](-c2cc(S(=O)(=O)[O-])c([N+](=O)[O-])cc2Cl)n1

1. > 100 µM
2. 0.715 µM
3. > 100 µM
4. 35.3 µM
5. > 100 µM
6. > 100 µM
7. > 100 µM

----------
Tested on: SK-MEL-5 melanoma
Test: NCI tumour cell line growth inhibition, 48 h
value.type: GI50

INSERT INTO measurements (compound, endpoint_value) VALUES
  ('COc1cc(-c2nc3sccn3c2-c2ccnc(NCCNS(=O)(=O)c3ccc(Cl)cc3)n2)ccc1F', '1.87 µM'),
  ('O=S(=O)(Cc1ccc(Cl)cc1Cl)c1ccc(Cl)cc1', '0.437 µM'),
  ('CC(C)(O)C#Cc1ccc(/C=C/C(=O)c2ccccc2)s1', '16.1 µM'),
  ('CC[O-].CC[O-].O=C([CH-]C(=O)c1cccnc1)c1ccccc1.O=C([CH-]C(=O)c1cccnc1)c1ccccc1.[Ti+4]', '> 100 µM'),
  ('Cc1ccc2c(c1)c1nc3cc(C)c(C)cc3nc1n2CCN(C)C', '1.77 µM');

Here are 7 compounds. What values of GI50 were reported for them?
1. N#Cc1ncc(-c2ccc(C(F)(F)F)cc2)c(NCc2cc(C(F)(F)F)cc(C(F)(F)F)c2)n1
2. O=C(Nc1ccc(F)cc1)Nc1ccccc1CNc1nc(Nc2ccc(OCCN3CCCC3)cc2)ncc1Cl
3. CC(=O)CCc1ccc(OC2OC(COC(=O)c3cc(O)c(O)c(O)c3)C(O)C(O)C2OC(=O)/C=C/c2ccccc2)cc1 (configuration not stated)
4. COc1ccc(-n2cc(-c3cc(OC)c(OC)c(OC)c3)nc2SCc2ccccc2)cc1
5. O=C1C2C(C(=O)[N]1[Hg][c]1cccs1)C1(Cl)C(Cl)=C(Cl)C2(Cl)C1(Cl)Cl (configuration not stated)
6. COc1ccc2c(c1)=C(C=C1C=CN(O)C=C1)C(=O)N=2
7. Clc1cc2c(cc1Cl)Oc1cc(Cl)c(Cl)cc1O2

3.91 µM
1.55 µM
19.1 µM
8.54 µM
1.55 µM
22.8 µM
> 0.625 µM

Here are 3 compounds. What values of GI50 were reported for them?
1. CN(CCCCCl)P(=O)(OCc1ccc([N+](=O)[O-])o1)OCC1OC(n2ccc(N)nc2=O)C(F)(F)C1O (configuration not stated)
2. CC(=O)N1N=C(c2ccc(Nc3nc(Nc4ccc(Cl)cc4)nc(Nc4ccc(Cl)cc4)n3)cc2)CC1c1ccc([N+](=O)[O-])cc1 (configuration not stated)
3. Cn1cc(C2=C(c3cn(CCO)c4ccccc34)C(=O)NC2=O)c2ccccc21

1. 3.2 µM
2. 3.22 µM
3. 2.55 µM

Here are 2 compounds. What values of GI50 were reported for them?
1. O=c1c2c3c(sc2n2c(-c4cc(-c5ccccc5)no4)nnc2n1Cc1ccccc1)CCCC3
2. N#C/C(=N\Nc1ccc(Cl)cc1)C(=O)Nc1cc(-c2ccccc2)nn1-c1ccccc1

["9.77 µM", "1.63 µM"]

----------
Test system: UO-31 renal
Experiment: NCI tumour cell line growth inhibition, 48 h
Kindly supply the reported TGI values for the records listed here.

Completed entries (count: 3):
INSERT INTO assay_data (molecule, endpoint_value) VALUES
  ('Fc1ccc(-c2nn3c(-c4ccc(F)c(Cl)c4)nnc3s2)cc1', '> 50 µM'),
  ('COc1ccc(-n2cc(-c3cc(OC)c(OC)c(OC)c3)nc2SCc2ccccc2)cc1', '> 100 µM'),
  ('CCOC(O)(NC(=O)C(C(F)(F)F)C(F)(F)F)C(F)(F)F (stereo not given)', '> 100 µM');

Here are 4 molecules. What values of TGI were reported for them?
1. Nc1ccc(-c2cssc2=S)cc1
2. O=C(C=Nc1ccccc1C(=O)[O-])c1cccs1.O=C(C=Nc1ccccc1C(=O)[O-])c1cccs1.[Co+2]
3. Cc1ccc(Cc2n[nH]c(=O)n2-c2ccccc2)cc1
4. O=C(Nc1ccc(F)cc1)Nc1ccccc1CNc1nc(Nc2ccc(OCCN3CCCC3)cc2)ncc1Cl

["> 100 µM", "> 100 µM", "> 100 µM", "1.49 µM"]

Here are 7 molecules. What values of TGI were reported for them?
1. C/C=C1/CN2CCc3c([nH]c4ccccc34)[C@@H]2C[C@@H]1Cc1[nH]ccc2c1[nH]c1cc(=O)ccc12
2. CC(=O)CCc1ccc(OC2OC(COC(=O)c3cc(O)c(O)c(O)c3)C(O)C(O)C2OC(=O)/C=C/c2ccccc2)cc1 (stereo not given)
3. CN(C)CCC(O)(c1ccccc1)C(O)(CCN(C)C)c1ccccc1 (stereo not given)
4. Cn1cc(C2=C(c3cn(CCO)c4ccccc34)C(=O)NC2=O)c2ccccc21
5. COc1ccc(/C=C2\C(=O)N(C)C(=O)c3cc(OC)c(OC)cc32)cc1OC
6. Nc1ccccc1-c1ccc([N+](=O)[O-])cc1
7. CC(=O)N1N=C(c2ccc(Nc3nc(Nc4ccc(Cl)cc4)nc(Nc4ccc(Cl)cc4)n3)cc2)CC1c1ccc([N+](=O)[O-])cc1 (stereo not given)

2.94 µM
> 100 µM
> 100 µM
14.6 µM
> 100 µM
> 100 µM
> 100 µM

Here are 4 molecules. What values of TGI were reported for them?
1. CCOc1ccc(NC(=O)C2=C(C)NC(C)=C(C(=O)Nc3ccc(OCC)cc3)C2c2ccc(O)c(OC)c2)cc1
2. CS(=O)(=O)OC1CN2CCC1CC2 (stereo not given)
3. CCCCCCCc1cc(OC(=O)c2c(C)cc(OC)cc2O)cc(O)c1C(=O)O
4. CCCc1cc(O)c2c3c(c(=O)oc2c1)CN(C)CC3

1. > 100 µM
2. > 100 µM
3. 30.6 µM
4. > 100 µM

Here are 2 molecules. What values of TGI were reported for them?
1. O=c1[nH]c2ccc(Cl)cc2c2oc(-c3ccccc3)nc12
2. COc1ccc2c(c1O)C13CCN(C)C(C2)C1CCC1(C3)OCCO1 (stereo not given)

["44.2 µM", "> 100 µM"]

Recorded values, source PubChem BioAssay (NCI).
